For each record, write down the corresponding IC50.
test system: AdV3; assay: Plaque reduction antiviral IC50 assay in A549, AdV3; format: cell-based, adenovirus 3; details: Human mastadenovirus B, read-out: Mean IC50
Only the number, expressed in µM, is required.

// fetch IC50 given entry Nc1nc2c(ncn2/C=C2/CC2(CO)CO)c(=O)[nH]1 [Filociclovir]
0.778

For the compound Nc1ccn(C[C@@H](CO)OCP(=O)(O)O)c(=O)n1 [CDV, cidofovir, reference compound] , report IC50.
5.78

* * *

test system: Adenovirus 5 (AdV5); test: Cytopathic effects (CPE) reduction assay, AdV5 in HFF cells, 384-well; assay type: cell-based, human adenovirus 5 (AdV5); conditions: AdV 384 Well CPE, HFF cells; average and SD from five independent experiments
readoutType: pEC50
Just the number, please; pEC50 means minus log10 of the concentration in mol/L.

Please supply the value of reported pEC50 for the item Cc1cn([C@H]2C[C@H](O)[C@]3(CO)C[C@H]23)c(=O)[nH]c1=O
4.24

Consider the molecule OC[C@H]1O[C@@H](n2c(Br)nc3cc(Cl)c(Cl)cc32)[C@H](O)[C@@H]1O and give its recorded pEC50.
4.15

* * *

tested on: human foreskin fibroblast (HFF) cells; test: Cytotoxicity, CellTiter-Glo cell viability in HFF cells
For each of the compounds below, state its CC50.

For the compound O=c1[nH]c(=O)n([C@@H]2O[C@H](CO)[C@@H](O)[C@@H]2F)cc1I [FIAU] , give its reported CC50.
> 100 µM

State, in one line, measured CC50 of O=c1[nH]c(=O)n([C@@H]2CO[C@H](CO)O2)cc1/C=C/Br [L-BHDU]
> 100 µM

* * *

test system: AdV 4; assay: Antiviral EC50 against AdV 4 (method not given); assay type: cell-based, adenovirus 4; details: Human mastadenovirus E; AdV 4, summary table
readoutType: EC50 (µM)
Respond with the bare value in µM.

For AdV 4, give the measured EC50 of the entry Nc1nc2c(ncn2/C=C2/CC2(CO)CO)c(=O)[nH]1
2.4

* * *

assay: Cytotoxicity, CellTiter-Glo cell viability in HFF cells; conditions: human, human foreskin fibroblast (HFF) cells
readoutType: CC50

# return recorded CC50 for input Nc1nc2c(ncn2COCCO)c(=O)[nH]1
> 100 µM

Please supply the value of reported CC50 for the item Nc1nc(O)c2ncn(COC(CO)CO)c2n1
> 100 µM

* * *

test: Cytotoxicity, neutral red, uninfected drug control wells of A549 cells; assay type: cell-based; details: human, AdV6 row of Table 2
readoutType: CC50 at 6 days

Provide one value: measured CC50 at 6 days of Nc1nc2c(ncn2/C=C2/CC2(CO)CO)c(=O)[nH]1 [Filociclovir]
> 100 µM

* * *

Provide the reported pIC50 of each item.
system: AdV4; test: Plaque reduction antiviral IC50 assay in A549, AdV4; type: cell-based, adenovirus 4; details: Human mastadenovirus E, read-out: Median IC50
Scale: pIC50 equals -log10([C]), with [C] in mol/L.

Give pIC50 for the following compound: Nc1ccn(C[C@@H](CO)OCP(=O)(O)O)c(=O)n1 [CDV, cidofovir, reference compound]
5.03

Find the measured pIC50 of Nc1nc2c(ncn2/C=C2/CC2(CO)CO)c(=O)[nH]1 [Filociclovir] and report it.
5.37
